src = PubChem BioAssay (NCI)

test system: OVCAR-4 ovarian; assay: NCI-60 one-dose screen, 48 h (100 = growth as untreated, 0 = no growth, -100 = all killed); details: 10 µM unless noted
This is part of a sample that, as a whole, favours compounds with a hit. Of some 83,000 tested, about 20% had one in any assay.
Rule for this label: 1 means growth is less than 50%; -1 means growth is at least 50%.

Check if growth falls below 50% for "Brc1cnc2[nH]cc(-c3nnc(-c4ccccc4)o3)c2c1" .
-1

Given "Cn1cc(-c2csc(-c3cn(CCCN4CCCCC4)c4ccc(Br)cc34)n2)c2cccnc21" , is recorded growth strictly lower than 50%?
1

Please state whether growth is below 50% for N#CC1c2ccccc2-c2ccccc2N1C(=O)c1ccccc1 (centres undefined)
1

Does the reported growth of "CCCCN1CCCCn2c1nc1c2c(=O)n(C)c(=O)n1C" stay below 50%?
-1

Is the reported growth for "CC1(C)C(=O)/C(=C\c2cccnc2)C[C@]2(C)[C@H]3CC[C@@H]4[C@@H](C(=O)/C=C/c5ccncc5)CC[C@@]4(C)[C@]3(C)CC[C@@H]12" strictly below 50%?
1

Continuing:
Does the reported growth of the following compound sit strictly below 50%? "O=C1/C(=C\c2ccco2)SC(=S)N1CCc1ccc(O)cc1"
-1

Problem: For the compound "COC(=O)CNc1nc(N(C)O)nc(N(C)O)n1" , is growth under 50%?
1

A record lists "COC(=O)[C@]12CC[C@@H](C)[C@H](C)[C@@H]1C1=CC[C@@H]3[C@@](C)(CC#N)C4=C(C[C@@]3(C)[C@]1(C)CC2)OC[C@]4(C)C=O" . Is its growth below 50%?
1
